// values below are reported pIC50
# target: M1-receptor of rat cerebral cortex (Rattus norvegicus, UniProt P08482)
# Construct: M1 -receptor of rat cerebral cortex; from tissue; host or cells: rat cerebral cortex (membranes of rat brain)
# Sequence (P08482 whole entry): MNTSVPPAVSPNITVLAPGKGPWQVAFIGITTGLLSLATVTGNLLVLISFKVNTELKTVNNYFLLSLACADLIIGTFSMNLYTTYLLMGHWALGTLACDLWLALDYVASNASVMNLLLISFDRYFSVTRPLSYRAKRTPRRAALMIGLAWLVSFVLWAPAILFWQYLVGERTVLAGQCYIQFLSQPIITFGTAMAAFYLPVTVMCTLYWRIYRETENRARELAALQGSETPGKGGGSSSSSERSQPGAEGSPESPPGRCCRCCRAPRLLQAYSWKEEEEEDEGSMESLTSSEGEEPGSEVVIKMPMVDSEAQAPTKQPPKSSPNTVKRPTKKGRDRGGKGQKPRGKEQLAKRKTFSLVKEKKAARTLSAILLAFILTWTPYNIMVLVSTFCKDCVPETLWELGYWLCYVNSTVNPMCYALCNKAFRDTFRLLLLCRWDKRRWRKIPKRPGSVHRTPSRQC
# test.summary: Affinity for muscarinic receptor: [3H]pirenzepine binding to M1-receptor of rat cerebral cortex
Remember, pIC50 is on a log scale: it is -log10 of the molar concentration.

Example compounds with recorded pIC50:
[
  {
    "compound": "O=C1CCCN1CC#CCN1CCCC1 [Oxotremorine, reference compound]",
    "val": 7.17
  },
  {
    "compound": "CC1OC2(CN3CCC2CC3)CC12SCCS2 (single isomer, unassigned)",
    "val": 7.77
  },
  {
    "compound": "C=C1CC2(CCN(C)CC2)OC1C (centres unmarked)",
    "val": 5.48
  },
  {
    "compound": "CCC1OC2(CCN(C)CC2)CC12OCCS2 (centres unmarked)",
    "val": 7.31
  }
]

Continue with the compound presented below.
Problem: Fill in: pIC50 of CC1SC2(CCN(C)CC2)CC12SCCS2 (centres unmarked) is ___
Result: 7.41

* * *

# target: M1-receptor of rat cerebral cortex (Rattus norvegicus)
# Construct: M1 -receptor of rat cerebral cortex; from tissue; host or cells: rat cerebral cortex (membranes of rat brain)
# test.summary: Affinity for muscarinic receptor: [3H]pirenzepine binding to M1-receptor of rat cerebral cortex
# recorded.conditions: [3H]pirenzepine, M1-receptor, rat cerebral cortex; read-out: Receptor-affinity IC50, Pirenzepine binding
assay.metric: IC50
Give the value; after it, write the unit.

Problem: Item C=C1CC2(CCN(C)CC2)OC1CC (stereo not shown) [Example 36] has what recorded IC50?
Result: 1260 nM

* * *

# Tested on: tremor in mice
# test.summary: Induction of tremor in mice
# recorded.conditions: sc
The entries below are paired with their reported Dose, the effect of the above 2) (minimum effective dose for causing tremor).

[
  {
    "compound": "CCC1OC2(CCN(C)CC2)CC1=O (centres unmarked)",
    "target": "tremor in mice",
    "val": "> 30 mg/kg"
  },
  {
    "compound": "COC(=O)C1=CCCN(C)C1 [Arecoline, reference compound]",
    "target": "tremor in mice",
    "val": "5 mg/kg"
  },
  {
    "compound": "C=C1CC2(CCN(C)CC2)OC1CC (centres unmarked)",
    "target": "tremor in mice",
    "val": "> 30 mg/kg"
  },
  {
    "compound": "CC1OC2(CN3CCC2CC3)CC12SCCS2 (single isomer, unassigned)",
    "target": "tremor in mice",
    "val": "> 30 mg/kg"
  },
  {
    "compound": "CC1SC2(CCN(C)CC2)CC12SCCS2 (centres unmarked)",
    "target": "tremor in mice",
    "val": "> 30 mg/kg"
  },
  {
    "compound": "O=C1CCCN1CC#CCN1CCCC1 [Oxotremorine, reference compound]",
    "target": "tremor in mice",
    "val": "0.2 mg/kg"
  }
]

Problem: Given the entry C=C1CC2(CCN(C)CC2)OC1C (centres unmarked) , report its measured Dose, the effect of the above 2) (minimum effective dose for causing tremor).
Result: > 30 mg/kg

Problem: Which Dose, the effect of the above 2) (minimum effective dose for causing tremor) reading was recorded for the compound CCC1OC2(CCN(C)CC2)CC12OCCS2 (centres unmarked) ?
Result: > 30 mg/kg
